tested on: Ca9-22 squamous cell carcinoma cells; assay: Cytotoxicity (MTT, 48 h) against Ca9-22 cells; assay type: cell-based, human; details: average CC50 towards HGF, HPLF, HPC divided by CC50 against Ca9-22
From the text: […]
# binarize SI (Ca9-22): threshold 20 inclusive, high side 1 (yes), low side 0 (no)

compound	discreteLabel
O=c1[nH]cc(F)c(=O)[nH]1 [Compound 5-FU, 5-fluorouracil, reference compound]	1 (yes)
CN(C)c1ccc(C=C2CN(C(=O)C(Cl)Cl)CC(=Cc3ccc(N(C)C)cc3)C2=O)cc1	0 (no)
O=C1C(=Cc2ccccc2)CN(C(=O)C(Cl)Cl)CC1=Cc1ccccc1	0 (no)
CC(=O)N1C/C(=C\c2ccccc2)C(=O)/C(=C/c2ccccc2)C1	0 (no)
COc1cc(/C=C2\CN(C(=O)C(Cl)Cl)C/C(=C\c3cc(OC)c(OC)c(OC)c3)C2=O)cc(OC)c1OC	0 (no)

Now look at this entry.
Inquiry: In plain terms: is recorded SI (Ca9-22) at least 20 for `COc1ccc(/C=C2\CN(C(=O)C(Cl)Cl)C/C(=C\c3ccc(OC)c(OC)c3)C2=O)cc1OC` ?
Reply text: 1 (yes)

---

system: HSC-4 squamous cell carcinoma cells; experiment: Cytotoxicity (MTT, 48 h) against HSC-4 cells; assay type: cell-based, human; settings: average CC50 towards HGF, HPLF, HPC divided by CC50 against HSC-4
Excerpt: […]
quantityMeasured: SI (HSC-4)

In the examples that follow, each entry is paired with its recorded SI (HSC-4).
compound	SI (HSC-4)
COc1ccc(/C=C2\CN(C(=O)C(Cl)Cl)C/C(=C\c3ccc(OC)c(OC)c3)C2=O)cc1OC	20.3
COc1cccc2c1C(=O)c1c(O)c3c(c(O)c1C2=O)C[C@@](O)(C(=O)CO)C[C@@H]3O[C@H]1C[C@H](N)[C@H](O)[C@H](C)O1 [DXR, doxorubicin, reference compound]	>79.6
CN(C)c1ccc(C=C2CN(C(=O)C(Cl)Cl)CC(=Cc3ccc(N(C)C)cc3)C2=O)cc1	7.14

// SI (HSC-4) value for `Cc1ccc(C=C2CN(C(=O)C(Cl)Cl)CC(=Cc3ccc(C)cc3)C2=O)cc1` : 10.7

Recorded SI (HSC-4) (compound `O=C1C(=Cc2ccc(F)cc2)CN(C(=O)C(Cl)Cl)CC1=Cc1ccc(F)cc1` ): 6.61

For `CC(=O)N1C/C(=C\c2ccccc2)C(=O)/C(=C/c2ccccc2)C1` the compound record lists SI (HSC-4) as 7.07

// SI (HSC-4) lookup, compound = `O=C1/C(=C/c2ccc3c(c2)OCO3)CN(C(=O)C(Cl)Cl)C/C1=C\c1ccc2c(c1)OCO2` , result: 6.57

Looking up `COc1ccc(/C=C2\CN(C(=O)C(Cl)Cl)C/C(=C\c3ccc(OC)cc3)C2=O)cc1` , I found its SI (HSC-4) recorded as 4.75

---

test system: HSC-3 squamous cell carcinoma cells; test: Cytotoxicity (MTT, 48 h) against HSC-3 cells; assay type: cell-based, human; conditions: Homo sapiens, HSC-3; 48 h, MTT, mean ± S.D. of triplicate
quantityMeasured: CC50 (nM)
Give just the number in nM; leave the unit off.

compound	CC50, nM
COc1cccc2c1C(=O)c1c(O)c3c(c(O)c1C2=O)C[C@@](O)(C(=O)CO)C[C@@H]3O[C@H]1C[C@H](N)[C@H](O)[C@H](C)O1 [DXR, doxorubicin, reference compound]	260
O=c1[nH]cc(F)c(=O)[nH]1 [Compound 5-FU, 5-fluorouracil, reference compound]	61300

Turning now to a further compound:
Known value: HSC-3 squamous cell carcinoma cells CC50 of the compound O=C1/C(=C/c2ccc([N+](=O)[O-])cc2)CN(C(=O)C(Cl)Cl)C/C1=C\c1ccc([N+](=O)[O-])cc1 [Compound 1k] equals 100

---

Listed next: entries and their corresponding CC50 at 48 h.
experiment: Cytotoxicity (MTT, 48 h) against HGF non-malignant cells; assay type: cell-based, human; conditions: human, normal gingival fibroblasts (HGF), mean ± S.D. of triplicate

compound	reportedMeasurement
CC(=O)N1C/C(=C\c2ccccc2)C(=O)/C(=C/c2ccccc2)C1	23 µM
COc1ccc(/C=C2\CN(C(=O)C(Cl)Cl)C/C(=C\c3ccc(OC)c(OC)c3)C2=O)cc1OC	8.13 µM
O=C1C(=Cc2ccccc2)CNCC1=Cc1ccccc1	21.7 µM
O=C1/C(=C/c2ccc([N+](=O)[O-])cc2)CN(C(=O)C(Cl)Cl)C/C1=C\c1ccc([N+](=O)[O-])cc1	3.01 µM
O=C1/C(=C/c2ccc(Cl)cc2)CN(C(=O)C(Cl)Cl)C/C1=C\c1ccc(Cl)cc1	2.13 µM

According to the records, this compound COc1cccc2c1C(=O)c1c(O)c3c(c(O)c1C2=O)C[C@@](O)(C(=O)CO)C[C@@H]3O[C@H]1C[C@H](N)[C@H](O)[C@H](C)O1 [DXR, doxorubicin, reference compound] displays CC50 at 48 h of > 10 µM

Looking up O=c1[nH]cc(F)c(=O)[nH]1 [Compound 5-FU, 5-fluorouracil, reference compound] , I found its CC50 at 48 h recorded as > 1000 µM

---

assay: Average cytotoxicity over the three non-malignant cells; format: cell-based, human; conditions: female, human, normal oral cells HGF, HPLF and HPC (average over the three)
Listing: CC50 at 48 h of selected molecules
Express your answer in µM, writing the number without its unit.

Example molecules with recorded CC50 at 48 h:
COc1ccc(/C=C2\CN(C(=O)C(Cl)Cl)C/C(=C\c3ccc(OC)c(OC)c3)C2=O)cc1OC 4.05
O=C1C(=Cc2ccccc2)CNCC1=Cc1ccccc1 11.7
O=C1/C(=C/c2ccc(Cl)cc2)CN(C(=O)C(Cl)Cl)C/C1=C\c1ccc(Cl)cc1 1.44

Let us examine a further case.
Documented CC50 at 48 h of `CC(=O)N1C/C(=C\c2ccccc2)C(=O)/C(=C/c2ccccc2)C1` : 11.1

---

system: Ca9-22 squamous cell carcinoma cells; experiment: Cytotoxicity (MTT, 48 h) against Ca9-22 cells; assay type: cell-based, human; details: Homo sapiens, Ca9-22; 48 h, MTT, mean ± S.D. of triplicate
Description: […]
Mark Condition met only when CC50 stays strictly below 0.4 µM. Values equal to the cut-off are Condition not met.

compound	discreteLabel
O=C1/C(=C/c2ccc(Cl)cc2)CN(C(=O)C(Cl)Cl)C/C1=C\c1ccc(Cl)cc1	Condition met
CC(=O)N1C/C(=C\c2ccccc2)C(=O)/C(=C/c2ccccc2)C1	Condition not met
O=C1/C(=C/c2ccc([N+](=O)[O-])cc2)CN(C(=O)C(Cl)Cl)C/C1=C\c1ccc([N+](=O)[O-])cc1	Condition met

Inquiry: Please check: CC50 for O=c1[nH]cc(F)c(=O)[nH]1 [Compound 5-FU, 5-fluorouracil, reference compound] , strictly under 0.4 µM or not?
Reply text: Condition not met

Inquiry: Lab note: confirm whether the reported CC50 for this compound is below 0.4 µM, equality not counting. compound: `O=C1C(=Cc2ccccc2)CNCC1=Cc1ccccc1`
Reply text: Condition met

Inquiry: Find out if reported CC50 for `COc1ccc(/C=C2\CN(C(=O)C(Cl)Cl)C/C(=C\c3ccc(OC)c(OC)c3)C2=O)cc1OC` is less than 0.4 µM
Reply text: Condition met

Inquiry: A record lists COc1cccc2c1C(=O)c1c(O)c3c(c(O)c1C2=O)C[C@@](O)(C(=O)CO)C[C@@H]3O[C@H]1C[C@H](N)[C@H](O)[C@H](C)O1 [DXR, doxorubicin, reference compound] . Is its CC50 below 0.4 µM?
Reply text: Condition not met

---

tested on: periodontal ligament fibroblast (HPLF); assay: Cytotoxicity (MTT, 48 h) against HPLF non-malignant cells; format: cell-based, human; conditions: mean ± S.D. of triplicate
// returns class 0 unless CC50 is strictly below 2 µM, in which case class 1

Illustrative cases are given below, each with its answer.
compound	discreteLabel
O=C([O-])C(Cl)Cl.[Na+] [SDA, sodium dichloroacetate, reference compound]	class 0
Cc1ccc(C=C2CN(C(=O)C(Cl)Cl)CC(=Cc3ccc(C)cc3)C2=O)cc1	class 0
O=C1C(=Cc2ccc(F)c(F)c2)CN(C(=O)C(Cl)Cl)CC1=Cc1ccc(F)c(F)c1	class 1
CN(C)c1ccc(C=C2CN(C(=O)C(Cl)Cl)CC(=Cc3ccc(N(C)C)cc3)C2=O)cc1	class 0
COc1cc(/C=C2\CN(C(=O)C(Cl)Cl)C/C(=C\c3cc(OC)c(OC)c(OC)c3)C2=O)cc(OC)c1OC	class 0
COc1ccc(/C=C2\CN(C(=O)C(Cl)Cl)C/C(=C\c3ccc(OC)cc3)C2=O)cc1	class 0

Inquiry: Determine if `O=C1C(=Cc2ccc(Cl)c(Cl)c2)CN(C(=O)C(Cl)Cl)CC1=Cc1ccc(Cl)c(Cl)c1` shows CC50 strictly lower than 2 µM.
Reply text: class 1

Inquiry: Consider `O=C1C(=Cc2ccccc2)CN(C(=O)C(Cl)Cl)CC1=Cc1ccccc1` . Does its CC50 lie strictly below 2 µM?
Reply text: class 0

Inquiry: Strictly below 2 µM in CC50? `O=C1C(=Cc2ccc(F)cc2)CN(C(=O)C(Cl)Cl)CC1=Cc1ccc(F)cc1`
Reply text: class 0

Inquiry: Problem: For the compound `O=C1/C(=C/c2ccc3c(c2)OCO3)CN(C(=O)C(Cl)Cl)C/C1=C\c1ccc2c(c1)OCO2` , is CC50 under 2 µM?
Reply text: class 0
